System: A549
Experiment: Cytotoxicity against human A549 cells after 48 hrs by SRB assay
Format: functional, cell-based
Settings: Homo sapiens, A549, 48 h; read-out: GI50
Listed here: items and their measured GI50.
Numbers only here, please. The scale is nM.

Consider the worked cases shown below.
molecule	GI50 / nM
C/C=C1\NC(=O)[C@H](Cc2ccccc2)NC(=O)[C@@H](C(C)C)NC(=O)[C@@H]([C@H](C)CC)NC(=O)[C@H](NC(=O)[C@H](NC(=O)[C@H](CCCN)NC(=O)[C@H]2CCCN2C(=O)[C@H](NC(=O)[C@@H](NC(=O)[C@@H](NC(=O)[C@H](NC(=O)Cc2ccc(C(F)(F)F)cc2)C(C)C)[C@@H](C)O)C(C)C)C(C)C)[C@H](C)CC)[C@H](C)OC(=O)[C@H](C(C)C)NC1=O	1840
C/C=C1\NC(=O)[C@H](Cc2ccccc2)NC(=O)[C@@H](C(C)C)NC(=O)[C@@H]([C@H](C)CC)NC(=O)[C@H](NC(=O)[C@H](NC(=O)[C@H](CCCN)NC(=O)[C@H]2CCCN2C(=O)[C@H](NC(=O)[C@@H](NC(=O)[C@@H](NC(=O)[C@H](NC(=O)CC[C@@H](C)[C@H]2CC[C@H]3[C@@H]4CC[C@@H]5C[C@H](OC(=O)C(F)(F)F)CC[C@]5(C)[C@H]4CC[C@]23C)C(C)C)[C@@H](C)O)C(C)C)C(C)C)[C@H](C)CC)[C@H](C)OC(=O)[C@H](C(C)C)NC1=O	1060
C/C=C1\NC(=O)[C@H](Cc2ccc(Cl)cc2)NC(=O)[C@@H](C(C)C)NC(=O)[C@@H]([C@H](C)CC)NC(=O)[C@H](NC(=O)[C@H](NC(=O)[C@H](CCCN)NC(=O)[C@H]2CCCN2C(=O)[C@H](NC(=O)[C@@H](NC(=O)[C@@H](NC(=O)[C@H](NC(=O)CCCC(C)C)C(C)C)[C@@H](C)O)C(C)C)C(C)C)[C@H](C)CC)[C@H](C)OC(=O)[C@H](C(C)C)NC1=O	227
C/C=C1\NC(=O)[C@H](Cc2ccccc2)NC(=O)[C@@H](C(C)C)NC(=O)[C@@H]([C@H](C)CC)NC(=O)[C@H](NC(=O)[C@H](NC(=O)[C@H](CCCN)NC(=O)[C@H]2CCCN2C(=O)[C@H](NC(=O)[C@@H](NC(=O)[C@@H](NC(=O)[C@H](NC(=O)Cc2cc(F)cc(F)c2)C(C)C)[C@@H](C)O)C(C)C)C(C)C)[C@H](C)CC)[C@H](C)OC(=O)[C@H](C(C)C)NC1=O	1620

Task: Endpoint output: GI50 of C/C=C1\NC(=O)[C@H](Cc2ccccc2)NC(=O)[C@@H](C(C)C)NC(=O)[C@@H]([C@H](C)CC)NC(=O)[C@H](NC(=O)[C@H](NC(=O)[C@H](CCCN)NC(=O)[C@H]2CCCN2C(=O)[C@H](NC(=O)[C@@H](NC(=O)[C@@H](NC(=O)[C@H](NC(=O)C2CCC(C)CC2)C(C)C)[C@@H](C)O)C(C)C)C(C)C)[C@H](C)CC)[C@H](C)OC(=O)[C@H](C(C)C)NC1=O (stereo not given in full) . Value?
Result: 1040

FYI, the data here is from ChEMBL document CHEMBL1156597.
